Biological target: M2 muscarinic receptor (Homo sapiens, UniProt P08172)
Sequence (P08172 whole entry): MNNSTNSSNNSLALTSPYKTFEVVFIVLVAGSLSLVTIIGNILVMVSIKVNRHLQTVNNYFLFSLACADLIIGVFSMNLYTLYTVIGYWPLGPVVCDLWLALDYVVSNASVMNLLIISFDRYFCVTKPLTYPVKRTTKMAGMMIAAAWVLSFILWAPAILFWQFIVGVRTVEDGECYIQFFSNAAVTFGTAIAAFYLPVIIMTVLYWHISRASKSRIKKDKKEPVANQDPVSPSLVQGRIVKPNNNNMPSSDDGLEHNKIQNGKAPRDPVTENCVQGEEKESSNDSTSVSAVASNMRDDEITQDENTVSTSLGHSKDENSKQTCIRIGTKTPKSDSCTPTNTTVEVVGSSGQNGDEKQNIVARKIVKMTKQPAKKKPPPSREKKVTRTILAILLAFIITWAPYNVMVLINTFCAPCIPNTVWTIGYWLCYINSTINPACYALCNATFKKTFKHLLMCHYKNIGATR
Assay: Functional mobilization of intracellular calcium (FLIPR) in CHO cells expressing M2
Details: CHO cells expressing M2, FLIPR calcium
Method: Functional Mobilization of Intracellular Calcium to Determine Muscarinic Receptor Activity: […] Compounds are prepared at a 2× fold concentration in a 96-well plate (round bottom, Costar Corning cat#3656), by reconstituting the pre-spotted compounds in bath 1 containing 1 mM probenecid. […] In both assay modes, the fluorescence is recorded for 60 sec (excitation wavelength is […] and emission wavelength 540 nm) using the FLIPR 3 instrument. […]
Assign EC50 to each entry below.

[Q] I would be grateful if you could share the reported EC50 for CC(=O)N1CCC[C@@H]1C(=O)N[C@@H]1CCC2(CCN(CCC(C)(C)C)CC2)c2ccccc21 .
[A] 2 to 5 µM

[Q] I would be grateful if you could share the reported EC50 for CC(=O)N1CCCC[C@@H]1C(=O)N[C@H]1CCC2(CCN(CCC(C)(C)C)CC2)c2cc(F)ccc21 .
[A] 2 to 5 µM

[Q] I would be grateful if you could share the reported EC50 for CC(C)(C)CCN1CCC2(CC[C@H](NC(=O)C3CC3)c3ccc(F)cc32)CC1 .
[A] < 2 µM

[Q] I would be grateful if you could share the reported EC50 for Cc1cc(C(=O)N[C@H]2CCC3(CCN(CCC(C)(C)C)CC3)c3cc(F)ccc32)nn1C .
[A] < 2 µM

[Q] I would be grateful if you could share the reported EC50 for CCC(CC)CN1CCC2(CC[C@H](NC(C)=O)c3ccccc32)CC1 .
[A] > 5 µM

[Q] I would be grateful if you could share the reported EC50 for CCN(C(=O)C1CCOC(C)(C)C1)[C@H]1CCC2(CCN(CCC(C)(C)C)CC2)c2ccccc21 (stereo partly drawn) .
[A] > 5 µM

[Q] I would be grateful if you could share the reported EC50 for CC(C)(C)CCN1CCC2(CC[C@@H](NC(=O)CN3CCCC3=O)c3ccc(F)cc32)CC1 .
[A] < 2 µM

[Q] I would be grateful if you could share the reported EC50 for CCN(C(=O)C(C)NC(C)=O)[C@H]1CCC2(CCN(CCC(C)(C)C)CC2)c2ccccc21 (stereo partly drawn) .
[A] 2 to 5 µM

[Q] I would be grateful if you could share the reported EC50 for CCN(C(=O)c1cncn1C)[C@H]1CCC2(CCN(CCC(C)(C)C)CC2)c2ccccc21 .
[A] > 5 µM

[Q] I would be grateful if you could share the reported EC50 for CC(=O)N[C@H](C)C(=O)N[C@@H]1CCC2(CCN(CCC(C)(C)C)CC2)c2ccccc21 [compound 162] .
[A] > 5 µM

[Q] I would be grateful if you could share the reported EC50 for CC(C)(C)CCN1CCC2(CC[C@H](NC(=O)CC3CCCC3=O)c3ccc(F)cc32)CC1 (stereo partly drawn) .
[A] 2 to 5 µM

[Q] I would be grateful if you could share the reported EC50 for CC(=O)N1CCC(C(=O)N(C)[C@H]2CCC3(CCN(CCC(C)(C)C)CC3)c3ccccc32)CC1 .
[A] > 5 µM

[Q] I would be grateful if you could share the reported EC50 for CC(C)(C)CCN1CCC2(CC[C@H](NC(=O)CN3CCCCCC3=O)c3ccccc32)CC1 .
[A] < 2 µM

[Q] I would be grateful if you could share the reported EC50 for CCCN1CCC2(CC[C@H](NC(C)=O)c3ccccc32)CC1 .
[A] > 5 µM

[Q] I would be grateful if you could share the reported EC50 for CCC(=O)N[C@@H]1CCC2(CCN(CCC(C)(C)C)CC2)c2ccccc21 .
[A] > 5 µM
